Measured values drawn from patent US6632829B2 for this set.

Assay Target: human ETB receptor (Homo sapiens)
Construct: expressed in transfected cells; host or cells: COS7 cells
Sequence (P24530 27-442): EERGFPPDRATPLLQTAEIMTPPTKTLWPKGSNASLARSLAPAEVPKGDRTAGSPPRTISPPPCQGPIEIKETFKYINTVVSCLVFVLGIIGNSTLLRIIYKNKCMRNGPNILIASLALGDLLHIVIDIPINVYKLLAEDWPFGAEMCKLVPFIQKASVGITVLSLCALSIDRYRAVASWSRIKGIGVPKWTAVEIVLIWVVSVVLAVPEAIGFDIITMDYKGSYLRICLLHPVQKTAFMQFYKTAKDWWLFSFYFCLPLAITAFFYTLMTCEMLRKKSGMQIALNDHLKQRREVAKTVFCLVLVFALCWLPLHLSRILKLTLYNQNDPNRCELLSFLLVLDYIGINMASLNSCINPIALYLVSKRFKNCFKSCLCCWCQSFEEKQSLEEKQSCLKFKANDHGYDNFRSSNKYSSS
Protocol: Endothelin binding inhibition, Binding Test #2: competition with 125I-ET-1 for ETB receptors on transfected COS7 cell membranes
Experimental Parameters: incubation at 24° C. (values marked †)
pIC50: −log10 of the molar value.
Given measured pIC50, output criterion met if it is greater than or equal to 5 and criterion not met if not.

Task item: Decide: pIC50 of Cc1noc(NS(=O)(=O)c2ccsc2C(=O)N2CCN(Cc3ccc4c(c3)OCO4)CC2)c1Cl >= 5?
Reply: criterion not met

Task item: // inclusive: pIC50 at least 5? input: CC(=O)OCCc1cc2c(cc1NC(=O)c1sccc1S(=O)(=O)Nc1onc(C)c1Cl)OCO2
Reply: criterion not met

Task item: Is the recorded value of pIC50 equal to or greater than 5 for this molecule? Cc1cc(C)c(NC(=O)c2sccc2S(=O)(=O)Nc2onc(C)c2Cl)c(C)c1CO
Reply: criterion not met

Task item: Please tell me: is the molecule CCc1ccc(Cc2sc3ccccc3c2S(=O)(=O)Nc2onc(C)c2Br)cc1 at or over 5 in terms of pIC50?
Reply: criterion met

Task item: Threshold query (pIC50 >= 5) on Cc1noc(NS(=O)(=O)c2ccsc2C/C=C/c2ccc3c(c2)OCO3)c1Br
Reply: criterion met

Task item: Identify whether the reported pIC50 of the following molecule is 5 or greater: Cc1ccc(CCc2sccc2S(=O)(=O)Nc2onc(C)c2Br)cc1
Reply: criterion not met

Task item: Please tell me: is the molecule Cc1ccc(NC(=O)c2sccc2S(=O)(=O)Nc2onc(C)c2Cl)cc1 at or over 5 in terms of pIC50?
Reply: criterion not met

Task item: Does Cc1onc(NS(=O)(=O)c2c(Cc3ccc4c(c3)OCO4)sc3ccccc23)c1Cl have a reported pIC50 of at least 5?
Reply: criterion met

Task item: Identify whether the reported pIC50 of the following molecule is 5 or greater: Cc1noc(NS(=O)(=O)c2sccc2-c2ccc3c(c2)OCO3)c1Br
Reply: criterion not met
